assay_target: human alkyltransferase (Homo sapiens, UniProt P16455)
Sequence (P16455 1-207): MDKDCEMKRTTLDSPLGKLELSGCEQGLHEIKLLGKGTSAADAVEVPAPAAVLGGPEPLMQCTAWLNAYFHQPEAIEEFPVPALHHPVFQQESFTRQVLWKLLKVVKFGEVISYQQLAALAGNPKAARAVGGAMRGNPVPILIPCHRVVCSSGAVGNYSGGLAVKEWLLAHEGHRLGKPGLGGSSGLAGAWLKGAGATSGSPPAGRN
test_protocol: Inactivation of purified recombinant human alkyltransferase in vitro
Assay type: biochemical
test_context: −DNA (hemocyanin), 30 min at 37° C; read-out: ED50 for inactivation of alkyltransferase
quantity_name: EC50 (nM)
Please state the figure in nM; there is no need to write the unit.

Entry Nc1nc(OCc2ccc(COC(=O)CC[C@H](NC(=O)c3ccc(NCc4cnc5nc(N)[nH]c(=O)c5n4)cc3)C(=O)O)cc2)c2nc[nH]c2n1 , tested on human alkyltransferase (Homo sapiens, UniProt P16455), has a reported EC50 of 700

====

assay_target: human alkyltransferase (Homo sapiens)
test_protocol: Inactivation of purified recombinant human alkyltransferase in vitro
Format: biochemical
test_context: absence of DNA; read-out: ED50 value in the absence of DNA
pEC50 by entry:
Reminder that pEC50 means the negative base-10 logarithm of the concentration expressed in mol/L.

Nc1nc(OCc2ccccc2)c2ncn([C@H]3CC(OC(=O)CC[C@H](NC(=O)c4ccc(NCc5cnc6nc(N)[nH]c(=O)c6n5)cc4)C(=O)O)[C@@H](CO)O3)c2n1 (some centres unmarked) = 7.80

Please turn your attention to the following entry.
Measured pEC50 of Nc1nc(OCc2ccccc2)c2ncn([C@H]3CC(O)[C@@H](COC(=O)CC[C@H](NC(=O)c4ccc(NCc5cnc6nc(N)[nH]c(=O)c6n5)cc4)C(=O)O)O3)c2n1 (some centres unmarked) : 6.19
